System: Liver microsome
protocolSummary: Intrinsic clearance in Beagle dog liver microsomes assessed per gram of liver at 0.5 uM by LC/MS/MS analysis
Format: ADME, Canis lupus familiaris
measuredEndpoint: CLint

Query block: Fill blank: measured CLint of the compound O=c1ccc2ccc(F)c3c2n1C[C@H]3CN1CCC(NCc2cc3c(nn2)OCCO3)CC1 [GSK-945237] is ____.
Result block: < 0.6 mL/min/g

###

System: Liver microsome
protocolSummary: Intrinsic clearance in Sprague-Dawley rat liver microsomes assessed per gram of liver at 0.5 uM by LC/MS/MS analysis
Format: ADME
measuredEndpoint: CLint (mL/min/g)
Reply numerically in mL/min/g, unit not repeated.

Query block: Fill blank: measured CLint of the compound O=c1ccc2ccc(F)c3c2n1C[C@H]3CN1CCC(NCc2cc3c(nn2)OCCO3)CC1 is ____.
Result block: 0.7

###

protocolSummary: Terminal half life in Sprague-Dawley rat at 3 mg/kg, iv administered as single dose by LC/MS/MS analysis
Type: ADME, organism-based
conditionNotes: in vivo, read-out: beta t1/2 (converted)
measuredEndpoint: half-life (h)
Reply numerically in h, unit not repeated.

Query block: Fill blank: measured half-life of the molecule O=c1ccc2ccc(F)c3c2n1C[C@H]3CN1CCC(NCc2cc3c(nn2)OCCO3)CC1 is ____.
Result block: 1.9

###

Parameter MIC: see the listing below.
Tested on: Haemophilus influenzae
protocolSummary: Antibacterial activity against Haemophilus influenzae H128 after 18 to 24 hrs by broth microdilution method
Format: functional

Consider the reported MIC for these molecules:
>>> val("O=c1ccc2ccc(F)c3c2n1C[C@H]3CN1CCCC(CNCc2cc3c(nn2)OCCO3)C1 (stereo not given in full)")
"> 16 µg/mL"
>>> val("O=C1CC(NCc2cc3c(nn2)OCCO3)CCN1C[C@@H]1Cn2c(=O)ccc3ccc(F)c1c32 (stereo not given in full)")
"> 16 µg/mL"

Query block: Fill blank: measured MIC of the molecule O=c1ccc2cccc3c2n1C[C@H]3CN1CCC(NCc2cc3c(nn2)OCCO3)CC1 is ____.
Result block: 2 µg/mL

Query block: Fill blank: measured MIC of the molecule O=c1cnc2ccc(F)c3c2n1C[C@H]3CN1CCC(NCc2cc3c(nn2)OCCO3)CC1 is ____.
Result block: 0.5 µg/mL

Query block: Fill blank: measured MIC of the molecule O=c1ccc2ccc(F)c3c2n1C[C@H]3CN1CCC(NCc2cc3c(nn2)OCCO3)CC1 is ____.
Result block: 1 µg/mL

###

Tested on: Streptococcus pneumoniae
protocolSummary: Antibacterial activity against quinolone-resistant Streptococcus pneumoniae TPS3 after 18 to 24 hrs by broth microdilution method
Type: functional
measuredEndpoint: MIC

>>> val("COc1ccc2ccc(=O)n3c2c1[C@H](CN1CCC(NCc2cc4c(nn2)OCCO4)CC1)C3")
"8 µg/mL"

Query block: Fill blank: measured MIC of the molecule COc1c(N2C[C@@H]3CCCN[C@@H]3C2)c(F)cc2c(=O)c(C(=O)O)cn(C3CC3)c12 [MOXIFLOXACIN] is ____.
Result block: 4 µg/mL

Query block: Fill blank: measured MIC of the molecule Cc1ccc2ccc(=O)n3c2c1[C@H](CN1CCC(NCc2cc4c(nn2)OCCO4)CC1)C3 is ____.
Result block: 1 µg/mL

Query block: Fill blank: measured MIC of the molecule Cc1cc(F)c2c3c1ccc(=O)n3C[C@H]2CN1CCC(NCc2cc3c(nn2)OCCO3)CC1 is ____.
Result block: 0.5 µg/mL

Query block: Fill blank: measured MIC of the molecule O=c1ccc2cccc3c2n1C[C@H]3CN1CCC(NCc2cc3c(nn2)OCCO3)CC1 is ____.
Result block: 1 µg/mL

###

protocolSummary: Volume of distribution at steady state in cynomolgus monkey at 3 mg/kg, iv administered as single dose by LC/MS/MS analysis
Format: ADME, organism-based, Macaca fascicularis
conditionNotes: in vivo, read-out: Vdss
measuredEndpoint: Vd

Query block: Fill blank: measured Vd of the molecule O=c1ccc2ccc(F)c3c2n1C[C@H]3CN1CCC(NCc2cc3c(nn2)OCCO3)CC1 is ____.
Result block: 8.2 L/kg

###

protocolSummary: Cmax in Sprague-Dawley rat at 100 mg/kg, po bid by LC/MS/MS analysis
Type: ADME, organism-based
Set-up: dose 100 mg/kg, route oral
conditionNotes: in vivo
measuredEndpoint: Cmax (ng/mL)
Reply numerically in ng/mL, unit not repeated.

Query block: Fill blank: measured Cmax of the compound O=c1ccc2ccc(F)c3c2n1C[C@H]3CN1CCC(NCc2cc3c(nn2)OCCO3)CC1 [GSK-945237] is ____.
Result block: 3000

###

protocolSummary: Cmax in cynomolgus monkey at 5 mg/kg, po administered as single dose by LC/MS/MS analysis
Assay type: ADME, organism-based, Macaca fascicularis
Parameters: dose 5 mg/kg, route oral
conditionNotes: in vivo
measuredEndpoint: Cmax (ng/mL)
Reply numerically in ng/mL, unit not repeated.

Query block: Fill blank: measured Cmax of the molecule O=c1ccc2ccc(F)c3c2n1C[C@H]3CN1CCC(NCc2cc3c(nn2)OCCO3)CC1 is ____.
Result block: 210

###

Parameter MIC: see the listing below.
Test system: Haemophilus influenzae
protocolSummary: Antibacterial activity against Haemophilus influenzae H128 after 18 to 24 hrs by broth microdilution method
Assay type: functional
Reply numerically in µg/mL, unit not repeated.

Consider the reported MIC for these molecules:
>>> val("Cc1cc(F)c2c3c1ccc(=O)n3C[C@H]2CN1CCC(NCc2cc3c(nn2)OCCO3)CC1")
2
>>> val("Cc1ccc2ccc(=O)n3c2c1[C@H](CN1CCC(NCc2cc4c(nn2)OCCO4)CC1)C3")
4
>>> val("COc1ccc2ccc(=O)n3c2c1[C@H](CN1CCC(NCc2cc4c(nn2)OCCO4)CC1)C3")
16

Could you now consider this next molecule?
Query block: Fill blank: measured MIC of the molecule N#Cc1ccc2ccc(=O)n3c2c1[C@H](CN1CCC(NCc2cc4c(nn2)OCCO4)CC1)C3 is ____.
Result block: 2

###

protocolSummary: Plasma protein binding in cynomolgus monkey at 0.5 to 5 ug/ml by equilibrium dialysis method
Format: ADME, cell-free, Macaca fascicularis
conditionNotes: read-out: PPB (converted)
measuredEndpoint: fraction unbound

Query block: Fill blank: measured fraction unbound of the molecule O=c1ccc2ccc(F)c3c2n1C[C@H]3CN1CCC(NCc2cc3c(nn2)OCCO3)CC1 is ____.
Result block: 0.576

###

protocolSummary: Volume of distribution at steady state in Sprague-Dawley rat at 3 mg/kg, iv administered as single dose by LC/MS/MS analysis
Assay type: ADME, organism-based
conditionNotes: in vivo, read-out: Vdss
measuredEndpoint: Vd (L/kg)
Reply numerically in L/kg, unit not repeated.

Query block: Fill blank: measured Vd of the compound O=c1ccc2ccc(F)c3c2n1C[C@H]3CN1CCC(NCc2cc3c(nn2)OCCO3)CC1 is ____.
Result block: 7.2

###

System: Rattus norvegicus
protocolSummary: AUC in Sprague-Dawley rat at 5 mg/kg, po administered as single dose by LC/MS/MS analysis
Type: ADME, organism-based
conditionNotes: in vivo
measuredEndpoint: AUC (ng·h/mL)
Reply numerically in ng·h/mL, unit not repeated.

Query block: Fill blank: measured AUC of the compound O=c1ccc2ccc(F)c3c2n1C[C@H]3CN1CCC(NCc2cc3c(nn2)OCCO3)CC1 [GSK-945237] is ____.
Result block: 290

###

protocolSummary: Volume of distribution at steady state in Beagle dog at 3 mg/kg, iv administered as single dose by LC/MS/MS analysis
Type: ADME, organism-based, Canis lupus familiaris
conditionNotes: in vivo, read-out: Vdss
measuredEndpoint: Vd
Kindly format the answer as number then unit.

Query block: Fill blank: measured Vd of the molecule O=c1ccc2ccc(F)c3c2n1C[C@H]3CN1CCC(NCc2cc3c(nn2)OCCO3)CC1 is ____.
Result block: 6.1 L/kg

###

protocolSummary: Terminal half life in Beagle dog at 3 mg/kg, iv administered as single dose by LC/MS/MS analysis
Type: ADME, organism-based, Canis lupus familiaris
conditionNotes: in vivo, read-out: beta t1/2 (converted)
measuredEndpoint: half-life (h)
Reply numerically in h, unit not repeated.

Query block: Fill blank: measured half-life of the compound O=c1ccc2ccc(F)c3c2n1C[C@H]3CN1CCC(NCc2cc3c(nn2)OCCO3)CC1 is ____.
Result block: 8.8

###

protocolSummary: Plasma protein binding in Beagle dog at 0.5 to 5 ug/ml by equilibrium dialysis method
Format: ADME, cell-free, Canis lupus familiaris
conditionNotes: read-out: PPB (converted)
measuredEndpoint: fraction unbound
Please state the value as a number alone, without comment.

Query block: Fill blank: measured fraction unbound of the molecule O=c1ccc2ccc(F)c3c2n1C[C@H]3CN1CCC(NCc2cc3c(nn2)OCCO3)CC1 [GSK-945237] is ____.
Result block: 0.53

###

protocolSummary: Cmax in Beagle dog at 5 mg/kg, po administered as single dose by LC/MS/MS analysis
Format: ADME, organism-based, Canis lupus familiaris
Set-up: dose 5 mg/kg, route oral
conditionNotes: in vivo
measuredEndpoint: Cmax (ng/mL)
Reply numerically in ng/mL, unit not repeated.

Query block: Fill blank: measured Cmax of the molecule O=c1ccc2ccc(F)c3c2n1C[C@H]3CN1CCC(NCc2cc3c(nn2)OCCO3)CC1 is ____.
Result block: 1070

Where do these numbers come from? They come from ChEMBL document CHEMBL3792299.
